Experiment: binding efficiency test, spiked water
Settings: 0.50 g in 30.0 ml spike solution, approximately 1 mg/l of each element, 18 hrs, room temperature
The label depends only on % Analyte Removed Cu: true if it is at least 90%, false if it is smaller.

Example entries begin here.
| COMPOUND | CLASS_LABEL |
| --- | --- |
| O=C([O-])[O-].[La+3].[OH-] [A, lanthanum carbonate hydroxide] | false |
| O.O.O.O.O=C([O-])[O-].O=C([O-])[O-].O=C([O-])[O-].[La+3].[La+3] [La2(CO3)3•4H2O, reference compound] | false |
| [O]=[Ti]=[O] | false |
| O=C([O-])[O-].[La+3].[La+3].[O-2].[O-2] [Compound B, anhydrous lanthanum oxycarbonate] | true |

# ---- query compound ----
## Input Hi, just wondering whether O=C([O-])[O-].O=C([O-])[O-].[Ti+4] [Ti(CO3)2, Ti carbonate] shows % Analyte Removed Cu of 90% or higher.
## Output true
